# TARGET_SYSTEM: Arachidonate 5-lipoxygenase-activating protein (Homo sapiens)
# PROTOCOL_DETAILS: Ratio of IC50 for FLAP in calcimycin-stimulated human whole blood to IC50 for displacement of [125I]-L-691831 from human FLAP expressed in Sf9 cell membranes
METRIC_NAME: Ratio IC50

Illustrative cases are given below, each with its answer.
compound=Nc1ncc(-c2ccc(C3(c4noc(N5CC[C@H](O)C5)n4)CCC3)cc2)cn1 value=6
compound=Nc1ncc(-c2ccc(C3(c4noc(N5CCCCC5)n4)CCC3)cc2)cn1 value=59
compound=Nc1ncc(-c2ccc(C3(c4noc(N5CC(O)C5)n4)CCC3)cc2)cn1 value=2

P: Nc1ncc(-c2ccc(C3(c4noc(N5CCCC5)n4)CCC3)cc2)cn1
Q: Nc1ncc(-c2ccc(C3(c4noc(N5CCN(CC6CCCO6)CC5)n4)CCC3)cc2)cn1 (configuration not stated)
R: Nc1ncc(-c2ccc(C3(c4noc(N5CCC(O)CC5)n4)CCC3)cc2)cn1
INPUT: Task field, ranking: reported Ratio IC50, descending order. Return the labels ranked in the requested order, please.
OUTPUT: P, R, Q

====

# PROTOCOL_DETAILS: Aqueous equilibrium solubility in citric acid/disodium phosphate buffer at pH 6.8 at 1 uM after 24 hrs by HPLC method
# Format: physicochemical
# TEST_CONTEXT: citric acid/disodium phosphate buffer, pH 6.8
METRIC_NAME: solubility thermodynamic at 24 h, 1 µM (µg/mL)

record_smiles=N#CCCn1cc(-c2nc(C3(c4ccc(-c5cnc(N)nc5)nc4)CCC3)no2)cn1 metric_name="solubility thermodynamic at 24 h, 1 µM" value=9
record_smiles=CC(C)(O)Cn1cc(-c2nc(C3(c4ccc(-c5cnc(N)nc5)nc4)CCC3)no2)cn1 metric_name="solubility thermodynamic at 24 h, 1 µM" value=45
record_smiles=CC(C)(O)Cn1cc(-c2nc([C@@](C)(c3ccc(-c4cnc(N)nc4)nc3)C3CC3)no2)cn1 metric_name="solubility thermodynamic at 24 h, 1 µM" value=26
record_smiles=C[C@@](c1ccc(-c2cnc(N)nc2)cc1)(c1noc(N2CCC(O)CC2)n1)C1CC1 metric_name="solubility thermodynamic at 24 h, 1 µM" value=111
record_smiles=CC(C)[C@](C)(c1ccc(-c2cnc(N)nc2)nc1)c1noc(-c2cnn(CC(C)(C)O)c2)n1 metric_name="solubility thermodynamic at 24 h, 1 µM" value=210

P: CC(C)[C@](C)(c1ccc(-c2cnc(N)nc2)nc1)c1noc(-c2cnn(C3COC3)c2)n1
Q: CC(C)[C@](C)(c1ccc(-c2cnc(N)nc2)nc1)c1noc(-c2cnn(C)c2)n1
INPUT: Kindly identify which of P and Q has the larger recorded solubility thermodynamic at 24 h, 1 µM value. Respond using the label that marks the chosen record.
OUTPUT: P

====

# PROTOCOL_DETAILS: Stability in human liver microsomes at 1 uM pretreated for 10 mins followed by NADPH addition after 60 mins by LC/MS analysis relative to hepatic blood flow
# Format: ADME, microsome
# TEST_CONTEXT: read-out: Stability
METRIC_NAME: hepatic extraction ratio at 1 h, 1 µM

compound=CN(c1cnn(C)c1)c1nc([C@@](C)(c2ccc(-c3cnc(N)nc3)cc2)C2CC2)no1 metric_name="hepatic extraction ratio at 1 h, 1 µM" value=0.34
compound=Cn1cc(-c2nc(C3(c4ccc(-c5cnc(N)nc5)nc4)CCC3)no2)cn1 metric_name="hepatic extraction ratio at 1 h, 1 µM" value=0.19
compound=C[C@@](c1ccc(-c2cnc(N)nc2)nc1)(c1noc(-c2cnn(C3COC3)c2)n1)C1CC1 metric_name="hepatic extraction ratio at 1 h, 1 µM" value=0.45
compound=CN(C)C(=O)Cn1cc(-c2nc([C@@](C)(c3ccc(-c4cnc(N)nc4)nc3)C3CC3)no2)cn1 metric_name="hepatic extraction ratio at 1 h, 1 µM" value=0.67
compound=CC1(O)CCN(c2nc(C3(c4ccc(-c5cnc(N)nc5)cc4)CCC3)no2)CC1 metric_name="hepatic extraction ratio at 1 h, 1 µM" value=0.29
compound="Nc1ncc(-c2ccc(C3(c4noc(N5CCN(CC6CCCO6)CC5)n4)CCC3)cc2)cn1 (centres undefined)" metric_name="hepatic extraction ratio at 1 h, 1 µM" value=0.49
compound=CC(C)(O)CN1CCN(c2nc([C@@](C)(c3ccc(-c4cnc(N)nc4)cc3)C3CC3)no2)CC1 metric_name="hepatic extraction ratio at 1 h, 1 µM" value=0.36
compound=Nc1ncc(-c2ccc(C3(c4noc(N5CCNCC5)n4)CCC3)cc2)cn1 metric_name="hepatic extraction ratio at 1 h, 1 µM" value=0.35

1: CC(C)OC1CCN(c2nc(C3(c4ccc(-c5cnc(N)nc5)cc4)CCC3)no2)CC1
2: C[C@@](c1ccc(-c2cnc(N)nc2)nc1)(c1noc(-c2cnn(CC#N)c2)n1)C1CC1
INPUT: Kindly identify which of 1 and 2 has the larger recorded hepatic extraction ratio at 1 h, 1 µM value. Respond using the label that marks the chosen record.
OUTPUT: 2
(2: 0.57, 1: 0.37)

====

# TARGET_SYSTEM: hERG (KCNH2) (Homo sapiens, UniProt Q12809)
# Sequence (Q12809 whole entry): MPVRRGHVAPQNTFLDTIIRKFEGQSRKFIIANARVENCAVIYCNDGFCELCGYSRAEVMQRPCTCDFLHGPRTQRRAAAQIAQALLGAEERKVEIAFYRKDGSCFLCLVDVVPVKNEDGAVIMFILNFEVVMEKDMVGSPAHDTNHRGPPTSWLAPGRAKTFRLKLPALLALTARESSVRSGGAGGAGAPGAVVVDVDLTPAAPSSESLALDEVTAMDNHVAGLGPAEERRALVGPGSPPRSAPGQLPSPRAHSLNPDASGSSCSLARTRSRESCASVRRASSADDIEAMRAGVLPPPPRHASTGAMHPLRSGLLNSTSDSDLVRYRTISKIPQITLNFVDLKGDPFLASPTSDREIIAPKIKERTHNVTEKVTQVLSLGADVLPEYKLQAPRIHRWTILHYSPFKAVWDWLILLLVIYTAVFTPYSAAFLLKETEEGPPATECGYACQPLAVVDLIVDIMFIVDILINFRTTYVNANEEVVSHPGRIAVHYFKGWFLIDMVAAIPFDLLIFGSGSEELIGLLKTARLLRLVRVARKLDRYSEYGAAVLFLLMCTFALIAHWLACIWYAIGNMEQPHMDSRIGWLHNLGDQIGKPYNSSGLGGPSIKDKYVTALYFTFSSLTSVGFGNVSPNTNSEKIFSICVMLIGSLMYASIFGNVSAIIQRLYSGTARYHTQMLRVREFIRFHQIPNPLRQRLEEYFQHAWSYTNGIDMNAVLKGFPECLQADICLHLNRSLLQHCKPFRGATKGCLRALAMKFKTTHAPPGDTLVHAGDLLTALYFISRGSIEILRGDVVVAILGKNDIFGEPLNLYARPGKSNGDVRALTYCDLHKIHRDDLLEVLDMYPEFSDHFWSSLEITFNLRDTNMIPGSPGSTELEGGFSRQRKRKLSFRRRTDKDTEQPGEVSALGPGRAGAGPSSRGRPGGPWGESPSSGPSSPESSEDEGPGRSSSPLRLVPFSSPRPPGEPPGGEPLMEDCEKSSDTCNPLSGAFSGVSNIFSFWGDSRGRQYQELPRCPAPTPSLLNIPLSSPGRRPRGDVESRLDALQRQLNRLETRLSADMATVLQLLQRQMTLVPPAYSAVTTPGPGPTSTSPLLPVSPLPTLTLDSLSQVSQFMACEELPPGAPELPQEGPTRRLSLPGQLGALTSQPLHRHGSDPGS
# PROTOCOL_DETAILS: Inhibition of human ERG expressed in CHO cells at 42 uM at -70mV holding potential measured after 300 secs by IonWorks electrophysiology method relative to control
# Assay type: cell-based
# TEST_CONTEXT: CHO cells expressing human ERG
METRIC_NAME: inhibition at 5 min, 42 µM (%)
Report as a plain number; the unit % is understood.

INPUT: What does the record list as inhibition at 5 min, 42 µM for CC(C)(O)Cn1cc(-c2nc([C@@](C)(c3ccc(-c4cnc(N)nc4)nc3)C3CC3)no2)cn1 ?
OUTPUT: 34

====

# TARGET_SYSTEM: hERG (KCNH2) (Homo sapiens)
# PROTOCOL_DETAILS: Inhibition of human ERG expressed in CHO cells at 13 uM at -70mV holding potential measured after 300 secs by IonWorks electrophysiology method relative to control
# Assay type: cell-based
# TEST_CONTEXT: CHO cells expressing human ERG
METRIC_NAME: inhibition at 5 min, 13 µM (%)
Report as a plain number; the unit % is understood.

INPUT: Query for hERG (KCNH2) (Homo sapiens): what inhibition at 5 min, 13 µM does the record show for Nc1ncc(-c2ccc(C3(c4noc(N5CCC(CO)CC5)n4)CCC3)cc2)cn1 ?
OUTPUT: 68

====

# TARGET_SYSTEM: Arachidonate 5-lipoxygenase-activating protein (Homo sapiens)
# Sequence (P20292 whole entry): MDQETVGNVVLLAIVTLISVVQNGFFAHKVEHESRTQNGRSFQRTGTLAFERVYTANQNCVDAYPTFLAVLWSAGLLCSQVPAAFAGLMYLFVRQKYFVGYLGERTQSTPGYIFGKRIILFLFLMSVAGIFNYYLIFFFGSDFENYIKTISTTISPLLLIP
# PROTOCOL_DETAILS: Inhibition of FLAP in calcimycin-stimulated human whole blood assessed as reduction in LTB4 production pretreated for 15 mins followed by calcimycin addition after 30 mins by ELISA
METRIC_NAME: IC50 (nM)

Illustrative cases are given below, each with its answer.
record_smiles=CC(C)(CO)n1cc(-c2nc(C3(c4ccc(-c5cnc(N)nc5)cc4)CCC3)no2)cn1 value_unit=nM value=155
record_smiles=CC(C)[C@](C)(c1ccc(-c2cnc(N)nc2)nc1)c1noc(-c2cnn(CC(C)(C)O)c2)n1 value_unit=nM value=41

1: Cc1cc(-c2nc(C3(c4ccc(-c5cnc(N)nc5)nc4)CCC3)no2)[nH]n1
2: Nc1ncc(-c2ccc(C3(c4noc(-c5cnn(C6COC6)c5)n4)CCC3)cn2)cn1
3: Cn1cc(-c2nc(C3(c4ccc(-c5cnc(N)nc5)nc4)CCC3)no2)cn1
INPUT: Would you mind ranking these compounds by ascending IC50? Return the labels ranked in the requested order, please.
OUTPUT: 2, 1, 3
(2: 71 nM, 1: 164 nM, 3: 270 nM)

====

# PROTOCOL_DETAILS: Aqueous kinetic solubility of the compound at pH 7.4
# Format: physicochemical
# TEST_CONTEXT: aqueous, read-out: Kinetic_solubility
METRIC_NAME: solubility kinetic (µg/mL)

A: CN(C)c1nc(C2(c3ccc(-c4cnc(N)nc4)cc3)CCC2)no1
B: Nc1ncc(-c2ccc(C3(c4noc(N5CCCC5)n4)CCC3)cc2)cn1
INPUT: // which entry reports the smaller solubility kinetic, A or B ? Respond using the label that marks the chosen record.
OUTPUT: A

====

# PROTOCOL_DETAILS: Clearance in human hepatocytes at 1 uM measured after 1 hr by LC/MS analysis relative to hepatic blood flow
# Type: ADME, cell-based, Hepatocyte
METRIC_NAME: hepatic extraction ratio at 1 h, 1 µM

Illustrative cases are given below, each with its answer.
record_smiles=CC(C)[C@](C)(c1ccc(-c2cnc(N)nc2)nc1)c1noc(-c2cnn(CC(C)(C)O)c2)n1 metric_name="hepatic extraction ratio at 1 h, 1 µM" value=0.3
record_smiles=CC(C)(O)Cn1cc(-c2nc(C3(c4ccc(-c5cnc(N)nc5)nc4)CCC3)no2)cn1 metric_name="hepatic extraction ratio at 1 h, 1 µM" value=0.5

I: CC(C)[C@](C)(c1ccc(-c2cnc(N)nc2)nc1)c1noc(-c2cnn(C3COC3)c2)n1
II: Cn1cc(-c2nc([C@@](C)(c3ccc(-c4cnc(N)nc4)nc3)C3CC3)no2)cn1
INPUT: // which entry reports the smaller hepatic extraction ratio at 1 h, 1 µM, I or II ? Respond using the label that marks the chosen record.
OUTPUT: I
